# TEST METHOD NOTES: Cytotoxicity activity against human HepG2 cells assessed by CellTiter-Glo luminescent cell viability assay.
# Assay type: toxicity, cell-based
# Parameters: assay stage confirmatory assay, source tissue liver
# ASSAY SETUP: HepG2 cells, read-out: IC50 relative
Activity calls are given as the source filed them. No rule for the calls is given here.
Respond only with the outcome that fits, drawn from true for active, false for inactive

Look over these answered cases.
[
  {
    "MOLECULE": "CC(C)CCNC(=O)COc1ccc(-c2nc(C(C)C)no2)cc1",
    "ASSIGNED LABEL": "true"
  },
  {
    "MOLECULE": "CCc1c2c(nc3ccc(OC(=O)N4CCC(N5CCCCC5)CC4)cc13)-c1cc3c(c(=O)n1C2)COC(=O)[C@]3(O)CC [IRINOTECAN]",
    "ASSIGNED LABEL": "true"
  },
  {
    "MOLECULE": "Cc1cc(NC(=O)c2cscn2)ccc1NC(=O)c1ccco1",
    "ASSIGNED LABEL": "true"
  },
  {
    "MOLECULE": "c1cc2c(cc1C1=NN=C(NC3CC3)SC1)OCO2",
    "ASSIGNED LABEL": "true"
  },
  {
    "MOLECULE": "Cc1cc2sc(NC(=O)NCCNS(C)(=O)=O)nc2cc1F",
    "ASSIGNED LABEL": "true"
  }
]

-- ask Hi, do you know how COc1cc(OC)cc(N(CCNC(C)C)c2ccc3ncc(-c4cnn(C)c4)nc3c2)c1 [ERDAFITINIB] came out in this test?
-- reply true

-- ask Hi, do you know how O=S(=O)(c1ccc(F)cc1)N1CCN(c2ccc(Nc3ccncc3)nn2)CC1 came out in this test?
-- reply false

-- ask Hi, do you know how COc1cccc2c1C(=O)c1c(O)c3c(c(O)c1C2=O)CC(O)(C(=O)CO)CC3OC1CC(N)C(O)C(C)O1 (centres undefined) came out in this test?
-- reply true

-- ask Hi, do you know how CCOc1cc(N2CCC(O)CC2)ccc1Nc1ncc2c(n1)N(C1CCCC1)CCC(=O)N2C came out in this test?
-- reply true

-- ask Hi, do you know how CNc1cccc(NC(=O)N[C@@H]2N=C(c3ccccn3)c3ccccc3N(CC(=O)C(C)(C)C)C2=O)c1 [NETAZEPIDE] came out in this test?
-- reply false

-- ask Hi, do you know how Cc1cc(CS(=O)(=O)c2ccccc2)cc(OCc2ccc(CN3CCC[C@@H]3CO)cc2)c1 came out in this test?
-- reply true

-- ask Hi, do you know how COc1cc([C@@H]2c3cc4c(cc3[C@@H](O[C@@H]3O[C@@H]5CO[C@@H](c6cccs6)O[C@H]5[C@H](O)[C@H]3O)[C@H]3COC(=O)[C@H]23)OCO4)cc(OC)c1O [TENIPOSIDE] came out in this test?
-- reply true

-- ask Hi, do you know how CCn1c(=O)c(C)nc2cc(C(=O)N3CCN(Cc4ccc(OC)cc4)CC3)ccc21 came out in this test?
-- reply true

-- ask Hi, do you know how O=C1c2sc3nccc(=O)n3c2C(=O)N1Cc1ccccc1 came out in this test?
-- reply true

-- ask Hi, do you know how CC(C)OCCCN[C@H]1CS(=O)(=O)C[C@@H]1S(=O)(=O)c1ccc(Cl)cc1 came out in this test?
-- reply true
